For each record, write down the corresponding activation.
- system under test: Sphingosine 1-phosphate receptor 2 (Homo sapiens) (UniProt O95136)
- Sequence (O95136 whole entry, looked up): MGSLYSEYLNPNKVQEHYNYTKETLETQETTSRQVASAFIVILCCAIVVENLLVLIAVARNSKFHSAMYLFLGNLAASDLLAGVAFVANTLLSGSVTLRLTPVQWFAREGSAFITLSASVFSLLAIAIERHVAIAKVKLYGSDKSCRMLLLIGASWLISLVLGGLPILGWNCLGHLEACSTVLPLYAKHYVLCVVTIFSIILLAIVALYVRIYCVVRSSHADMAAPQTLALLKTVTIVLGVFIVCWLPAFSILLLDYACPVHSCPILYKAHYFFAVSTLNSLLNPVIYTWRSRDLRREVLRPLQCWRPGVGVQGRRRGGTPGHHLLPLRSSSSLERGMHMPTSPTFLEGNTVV
- assay method text: activation of human S1P2 receptor – cell-based, primary screen (AID 729);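 further: 0% = vehicle low control and 100% = maximal reference agonist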
- measurement parameters: S1P2-expressing cell line, agonist reporter read-out; at 4.5 µM; active compounds read high
Among all 97,000 compounds or so, about 450 (0.46%) were called active. For the sample, actives were picked, then their nearest neighbours and some compounds at random.

# molecule `Cc1cc(N=CC2=C(O)CCCC2=O)no1` ; its activation = -0.19% (inactive)

The molecule listed as C=CCn1c2ccccc2c2nnc(SC(CC)C(=O)Nc3nc(C)c(C(=O)OCC)s3)nc21 (configuration not stated) shows activation equal to 21.9% (active)

Entry `O=C1Nc2ccc(Br)cc2/C1=N/N=C/C1=C(N2CCOCC2)C(=C\c2ccccc2)/CC1` — recorded activation = -5.74% (inactive)

Documented activation of `COc1ccc(NC(=O)COC(=O)Cn2c(C)nc3ccccc32)cc1OC` : -6.15% (inactive)

Sample `OCCNc1nc2ccccc2n1-c1ncnc2sc3c(c12)CCC3` ; activation observed: 17.8% (active)

The molecule `O=C(Oc1ccc([N+](=O)[O-])cc1)c1ccc2ccccc2n1` showed activation equal to -2.37% (inactive)

Briefly, activation measured for Cc1cc(C)c(S(=O)(=O)NCC2CCC(C(=O)NCc3ccc4c(c3)OCO4)CC2)c(C)c1 (configuration not stated) : -5.15% (inactive)

Per the records, this molecule ( `O=C(Nc1ccn(Cc2ccccc2F)n1)c1ccc(COc2ccc(Cl)cc2Cl)o1` ) has activation equal to -5.78% (inactive)

Reported activation for `CCn1c(=N)c(S(=O)(=O)c2ccc(F)cc2)cc2c(=O)n3ccccc3nc21` was 34.3% (active)

// activation value for `O=C(CCCCCn1c(=O)[nH]c2ccccc2c1=O)NCCc1c[nH]c2ccccc12` : -8.42% (inactive)

Lookup result for `Cc1ccc2oc(=O)c3cnn(CC(=O)N(Cc4ccco4)C4CCCCC4)c3c2c1` ; measured activation: -2.42% (inactive)

Record `CONC(=O)c1cc(OCC(F)(F)F)ccc1OCC(F)(F)F` . Reported activation: -3.47% (inactive)

Input CCOC(=O)c1sc(NC(=O)C(CC)Sc2nccn2C)nc1C (configuration not stated) . Output activation: -5.49% (inactive)

Notebook: `CC(C)(C)C(=O)Cn1c(NCCO)nc2ccccc21` , activation read as 0.17% (inactive)

Reported activation ( `Cc1ccc(-n2c(=O)c(C#N)cc3c(=O)n4ccccc4nc32)cc1C` ) = 5.21% (inactive)

The molecule listed as `CC(C)C(=O)Nc1ccc2c(c1)oc1ccccc12` has a reported activation of 0.25% (inactive)

Per the records, this molecule ( `Cc1sc2nc(SCC(N)=O)n(C)c(=O)c2c1C` ) has activation equal to -6.32% (inactive)

Lookup result for `CCCn1c(=NC(C)=O)c(C(=O)OCC)cc2c(=O)n3ccccc3nc21` ; measured activation: 14.5% (inactive)

So, `CN(C)c1ccnc2sc3c(=O)n(-c4ccc(Cl)cc4)cnc3c12` ? Its activation was -3.21% (inactive)

Quick note, activation for `CCOC(=O)c1cnc(SCC(=O)Nc2ccccc2C(=O)OC)nc1N` landed at 1.96% (inactive)

For record `O=C(O)c1ccccc1-c1ccccc1C(=O)Nc1cccc2ccccc12` the listed activation is -6.33% (inactive)

activation reading for `CCCNC(=O)c1c(N)n(-c2ccc(S(N)(=O)=O)cc2)c2nc3ccccc3nc12` : 25.6% (active)
